Can you tell me melting point for the items I'm about to list?

Compound	Readout value
N#CC1(c2ccccc2)CCN(CC(=O)Nc2ccc(S(N)(=O)=O)cc2)CC1 [CP-1]	196 to 198 °C
Cc1cc(NCC(=O)Nc2ccc(S(N)(=O)=O)cc2)c2ccccc2n1 [CP-7]	> 300 °C
COc1ccc(C2CCN(CC(=O)Nc3ccc(S(N)(=O)=O)cc3)CC2)cc1 [CP-5]	175 to 177 °C
NS(=O)(=O)c1ccc(NC(=O)CN2CCC(c3ccc(Cl)cc3)CC2)cc1 [CP-3]	270 to 272 °C
NS(=O)(=O)c1ccc(NC(=O)CN2CCC(O)(c3ccccc3)CC2)cc1 [CP-2]	221 to 223 °C
NS(=O)(=O)c1ccc(NC(=O)CN2CCC(N3CCCCC3)CC2)cc1 [CP-4]	215 to 217 °C

Kindly consider the entry below.
// query Query: melting point; subject: Cc1cccc(N2CCN(CC(=O)Nc3ccc(S(N)(=O)=O)cc3)CC2)c1C [CP-6]
// result 241 to 243 °C
